# TEST_SETTINGS: in isopropanol, 318.15 K
PARAMETER_MEASURED: solubility (mole fraction)
# respond with the number and nothing more

Data request: Name the reported solubility (mole fraction) value associated with the compound `CCCCCCCCCCCCCCCCCCCC(=O)OCCO`
Data returned: 0.0134

----------
# TEST_SETTINGS: in 1,1,2-trichlorotrifluoroethane, 311.45 K
PARAMETER_MEASURED: solubility (mole fraction)
# respond with the number and nothing more

Data request: Name the reported solubility (mole fraction) value associated with the molecule `CCCCCCCCCCCCCCCCCC(=O)OCCO`
Data returned: 0.049

----------
# TEST_SETTINGS: in n-hexyl acetate, 308.15 K
PARAMETER_MEASURED: solubility (mole fraction)
# respond with the number and nothing more

Data request: Name the reported solubility (mole fraction) value associated with the compound `CCCCCCCCCCCCCCCCCC(=O)OCCO`
Data returned: 0.128

Each recorded value in this set is attributed to BigSolDB 2.1.
